Molecular target: Glycogen synthase kinase-3 beta (Homo sapiens)
Sequence (P49841 whole entry): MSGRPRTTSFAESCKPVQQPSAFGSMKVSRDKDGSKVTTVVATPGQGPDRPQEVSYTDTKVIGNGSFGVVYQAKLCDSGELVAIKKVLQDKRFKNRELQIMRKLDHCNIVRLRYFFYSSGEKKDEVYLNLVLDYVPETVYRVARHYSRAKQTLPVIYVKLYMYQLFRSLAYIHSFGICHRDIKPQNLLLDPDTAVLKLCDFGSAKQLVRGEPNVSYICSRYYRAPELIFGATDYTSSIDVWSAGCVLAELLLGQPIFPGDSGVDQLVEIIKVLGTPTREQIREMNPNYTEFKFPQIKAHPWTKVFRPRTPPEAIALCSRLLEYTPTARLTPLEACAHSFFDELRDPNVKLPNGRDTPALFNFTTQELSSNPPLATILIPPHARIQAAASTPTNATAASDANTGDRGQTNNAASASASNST
Experiment: Competitive inhibition of human recombinant full length GSK3beta using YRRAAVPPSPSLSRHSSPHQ(pS)EDEEE as substrate preincubated with enzyme for 10 mins followed by substrate and 25 uM ATP addition measured after 60 mins by ADP-Glo luminescence assay
pIC50: −log10 of the molar value.
ASSAY READOUT: pIC50

In [3]: df
Out[3]:
                                   compound  bound_operator  endpoint_result
0  O=C(Nc1cc(-c2[nH]c(-c3ccco3)nc2-c2ccc(F)cc2)ccn1)C1CC1               =             6.81
1  O=C(Nc1cc(-c2[nH]c(CCc3ccccc3)nc2-c2ccc(F)cc2)ccn1)C1CC1               =             6.88
2  CSc1nc(-c2ccc(F)cc2)c(-c2ccnc(NC(=O)[C@@H]3C[C@H]3c3ccccc3)c2)[nH]1 (relative stereo)               =             6.09
3       Cc1ncc(-c2ccnc(NC(=O)C3CC3)c2)[nH]1               =             5.77
4  CSc1nc(-c2ccc(F)cc2)c(-c2ccnc(NC(=O)c3ccoc3)c2)[nH]1               =             5.44
5  CSc1nc(-c2ccc(F)cc2)c(-c2ccnc(NC(=O)c3ccccn3)c2)[nH]1               <             5.00
6  COc1ccc(CCC(=O)Nc2cc(-c3[nH]c(SC)nc3-c3ccc(F)cc3)ccn2)cc1               =             6.27
7  O=C(Nc1cc(-c2[nH]c(SCc3ccccc3)nc2-c2ccc(F)cc2)ccn1)C1CCCC1               =             6.18

====

Target: UniProt:P05177
Sequence (P05177 whole entry): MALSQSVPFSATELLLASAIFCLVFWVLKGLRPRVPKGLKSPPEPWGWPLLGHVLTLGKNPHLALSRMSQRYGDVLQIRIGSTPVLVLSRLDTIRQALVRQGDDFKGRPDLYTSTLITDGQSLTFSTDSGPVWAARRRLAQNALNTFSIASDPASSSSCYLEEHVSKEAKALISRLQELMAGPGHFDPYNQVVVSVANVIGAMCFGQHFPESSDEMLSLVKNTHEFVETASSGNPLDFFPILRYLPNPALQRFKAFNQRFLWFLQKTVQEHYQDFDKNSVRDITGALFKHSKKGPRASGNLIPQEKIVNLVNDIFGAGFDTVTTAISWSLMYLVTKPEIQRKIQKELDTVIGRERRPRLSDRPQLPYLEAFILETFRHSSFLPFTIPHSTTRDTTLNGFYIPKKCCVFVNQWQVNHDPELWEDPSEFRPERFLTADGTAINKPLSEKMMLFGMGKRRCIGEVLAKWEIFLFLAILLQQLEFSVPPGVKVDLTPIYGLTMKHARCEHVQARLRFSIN
Assay: Inhibition of human recombinant CYP1A2 expressed in baculovirus infected insect cells using 3-cyano-7-ethoxycoumarin as substrate at 10 uM in presence of NADPH by fluorimetric analysis relative to control
Format: ADME
Details: probe 3-cyano-7-ethoxycoumarin
inhibition at 10 µM by entry:
ASSAY READOUT: inhibition at 10 µM (%)

>>> df
                               given_smiles  endpoint_result
0  CCc1nc(-c2ccc(F)cc2)c(-c2ccnc(NC(=O)C3CC3)c2)[nH]1             83.6
1  CSc1nc(-c2ccc(F)cc2)c(-c2ccnc(NC(=O)C3CC3)c2)[nH]1             88.4
